Target entity: TgCDPK1 (Toxoplasma gondii, UniProt Q9BJF5)
Sequence (Q9BJF5 1-507): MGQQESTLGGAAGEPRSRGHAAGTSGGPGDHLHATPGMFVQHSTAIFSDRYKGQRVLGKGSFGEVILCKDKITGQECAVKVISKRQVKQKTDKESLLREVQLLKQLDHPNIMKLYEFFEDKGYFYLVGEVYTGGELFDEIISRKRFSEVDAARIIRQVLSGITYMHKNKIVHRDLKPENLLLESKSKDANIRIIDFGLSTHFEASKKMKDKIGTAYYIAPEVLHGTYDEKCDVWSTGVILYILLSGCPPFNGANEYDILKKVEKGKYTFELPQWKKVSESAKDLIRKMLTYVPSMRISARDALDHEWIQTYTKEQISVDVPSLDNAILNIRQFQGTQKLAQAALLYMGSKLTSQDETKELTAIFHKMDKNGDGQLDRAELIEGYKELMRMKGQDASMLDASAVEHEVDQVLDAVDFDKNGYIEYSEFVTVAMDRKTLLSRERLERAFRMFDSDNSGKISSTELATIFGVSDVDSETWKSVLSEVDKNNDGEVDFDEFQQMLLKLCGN
Assay info: biochemical
Test conditions: Table 1; KinaseGlo, Syntide 2 peptide substrate; read-out: TgCDPK1 IC50
Attribute measured: pIC50
Interpret pIC50 as the negative base-10 log of the concentration measured in mol/L.

These solved cases illustrate the format of a correct answer.
| Molecule | pIC50 |
| --- | --- |
| CCOc1ccc2cc(-c3nn(CCO)c(N)c3C(N)=O)cnc2c1 [Compound 1577] | 6.74 |
| CCOc1ccc2cc(-c3nn(C4(C)CCCCC4)c(N)c3C(N)=O)cnc2c1 [Compound 1640] | 8.05 |
| CCOc1ccc2cc(-c3nn(C(C)C4CC4)c(N)c3C(N)=O)cnc2c1 (centres unmarked) [Compound 1631] | 8.00 |
| CC(C)(C)n1nc(-c2cnc3cc(OC(F)(F)F)ccc3c2)c(C(N)=O)c1N [Compound 1565] | 7.51 |
| CCOc1ccc2cc(-c3nn(CCOC)c(N)c3C(=O)NCCOC)cnc2c1 [Compound 1595] | 6.14 |

Look up pIC50: CC(C)(CO)Cn1nc(-c2cnc3cc(OC4CCC4)ccc3c2)c(C(N)=O)c1N [Compound 1644]
7.92
